# TEST SUMMARY: Growth inhibition of human HOP92 cells after 48 hrs by sulforhodamine B assay
# Type: functional
# REPORTED CONDITIONS: HOP-92, 48 h
Rule: GI50 below 5 µM gives Fulfilled. Equal to or above 5 µM gives Not fulfilled.

COMPOUND | CATEGORY LABEL
CC1CCCc2c1nc(N)c(C#N)c2-c1cccn1C (stereo not drawn) | Not fulfilled
Cn1cccc1-c1cc(-c2ccccc2)[nH]c(=O)c1C#N | Fulfilled
Cn1cccc1-c1cc(-c2cccs2)nc(N)c1C#N | Not fulfilled
Cn1cccc1-c1cc(-c2ccccc2)nc(N)c1C#N | Fulfilled
COc1ccc(-c2cc(-c3cccn3C)c(C#N)c(=O)[nH]2)cc1OC | Fulfilled
CC1CCCc2c1[nH]c(=O)c(C#N)c2-c1cccn1C (stereo not drawn) | Not fulfilled
Cn1cccc1-c1cc(-c2cccs2)[nH]c(=O)c1C#N | Not fulfilled

Measured values drawn from ChEMBL document CHEMBL3407457 for this set.
